- System: FXR:RXRa (NR concentration 270 nM, RXRa partner concentration 90 nM)
- experiment description: PBM binding z-score (relative to random genomic background probes); higher = stronger binding; sequences stand for … in GC…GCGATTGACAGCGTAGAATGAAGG
Lab note: anything with PBM binding z-score at or over 1 counts as yes; the rest go in no.

Worked examples, 5 sequences total:
Please indicate if the recorded PBM binding z-score for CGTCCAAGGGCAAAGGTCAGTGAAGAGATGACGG meets or exceeds 1.
yes

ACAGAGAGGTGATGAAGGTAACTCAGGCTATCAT , same question.
no

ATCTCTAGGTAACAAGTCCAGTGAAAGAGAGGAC , same question.
no

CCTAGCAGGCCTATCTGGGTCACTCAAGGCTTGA , same question.
no

GGAACGAGGGCAAAGTTGATAGAATCTGTCGACG , same question.
yes

Next:
Please indicate if the recorded PBM binding z-score for CGTCCAAGGCCAGAGAGGTCAGTGAATGCCGAGT meets or exceeds 1.
yes

TGTAGCAGGCCAGAGGGTCACTCAAGAGGTACGG , same question.
no

AGTCAAAGTTCATCTAGGCAACGTAAGATATGCT , same question.
yes

CCGACTGGGGTAAAGGTTACCATACTCAGTACGA , same question.
yes

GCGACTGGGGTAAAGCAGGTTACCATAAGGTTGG , same question.
no

TCTTGCAGATCAAGCAGGTTAAGAAAGCCTGAGT , same question.
no

Where do these numbers come from? They come from the supplement of paper PMC6555819.
